experiment: refractive index (Na D-line) (dimensionless); settings: 298.15 K; 101.33 kPa; Liquid; Standard Abbe refractometry
Numbers after ± are expanded uncertainties.
I'd be grateful if you could share measured refractive index for these entries.

CCCCCC(=O)[O-].C[NH2+]CCO [N-methyl-2-hydroxyethylammonium hexanoate]	1.4563 ± 0.0012
CCCCCCCCCCCC	1.4196 ± 0.0007
CCCC(=O)[O-].C[NH2+]CCO [N-methyl-2-hydroxyethylammonium butanoate]	1.4555 ± 0.0012

State, in one line, measured refractive index of CC(=O)[O-].C[NH2+]CCO [N-methyl-2-hydroxyethylammonium acetate] 1.4584 ± 0.0012
